Molecular target: Solute carrier family 22 member 2 (Homo sapiens)
Sequence (O15244 whole entry): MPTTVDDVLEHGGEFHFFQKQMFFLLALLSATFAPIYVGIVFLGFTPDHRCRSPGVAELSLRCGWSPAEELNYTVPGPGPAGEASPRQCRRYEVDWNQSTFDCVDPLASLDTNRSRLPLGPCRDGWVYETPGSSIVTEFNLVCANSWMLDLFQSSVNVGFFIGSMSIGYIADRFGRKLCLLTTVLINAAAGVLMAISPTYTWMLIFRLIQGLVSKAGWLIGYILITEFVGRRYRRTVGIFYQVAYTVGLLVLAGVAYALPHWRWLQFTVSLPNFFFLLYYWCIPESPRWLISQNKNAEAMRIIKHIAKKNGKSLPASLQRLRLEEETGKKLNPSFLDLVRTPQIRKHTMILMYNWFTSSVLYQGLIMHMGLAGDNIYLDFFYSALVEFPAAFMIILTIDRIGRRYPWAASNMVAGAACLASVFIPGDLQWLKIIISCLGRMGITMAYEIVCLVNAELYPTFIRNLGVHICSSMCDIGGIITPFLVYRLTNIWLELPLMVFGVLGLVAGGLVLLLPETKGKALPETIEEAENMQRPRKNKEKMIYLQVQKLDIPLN
Test: TP_TRANSPORTER: inhibition of TEA uptake in Xenopus laevis oocytes
pKi: −log10 of the molar value.
Decide by pKi: equal to or exceeding 6 means True, less means False.

{"COMPOUND": "CC[n+]1c(CC2C=C(C)N=C(c3ccccc3)N2C)ccc2ccccc21 (configuration not stated) [Cyanine-863]", "CATEGORY_LABEL": "True"}

[ask] Answer whether pKi of COc1cc(C(O)CNC(C)C)ccc1O (configuration not stated) [METIPRENALINE] is greater than or equal to 6.
[reply] False

[ask] # bool: pKi of C[n+]1ccc(-c2ccccc2)cc1 >= 6
[reply] False

[ask] Kindly determine if pKi recorded for CC(C)C(c1ccccc1)C(O)CC[N+]1(C)CCCCC1 (configuration not stated) [MEPIPERPHENIDOL BROMIDE] is above or exactly 6.
[reply] False

[ask] Please indicate if the recorded pKi for CNC(=O)c1cccnc1 [NICOTINYL METHYLAMIDE] meets or exceeds 6.
[reply] False

[ask] Please tell me: is the compound CCN1/C(=C/c2ccc3ccccc3[n+]2CC)C=Cc2ccccc21 at or over 6 in terms of pKi?
[reply] True
